# reported IC50; entries follow
Biological target: SGK1 (Homo sapiens, UniProt O00141)
Sequence (O00141 1-431): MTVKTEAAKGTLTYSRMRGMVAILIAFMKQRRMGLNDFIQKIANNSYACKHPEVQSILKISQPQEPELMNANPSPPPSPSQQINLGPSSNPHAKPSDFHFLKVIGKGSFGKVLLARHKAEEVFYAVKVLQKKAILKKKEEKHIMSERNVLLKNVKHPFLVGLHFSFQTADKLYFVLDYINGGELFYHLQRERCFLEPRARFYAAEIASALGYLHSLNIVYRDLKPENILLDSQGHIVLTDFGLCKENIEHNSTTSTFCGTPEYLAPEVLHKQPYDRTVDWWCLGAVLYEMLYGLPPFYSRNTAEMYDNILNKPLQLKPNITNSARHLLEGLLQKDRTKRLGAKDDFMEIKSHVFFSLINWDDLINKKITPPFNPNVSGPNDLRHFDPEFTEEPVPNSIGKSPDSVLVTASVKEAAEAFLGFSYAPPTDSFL
I'd appreciate it if you included the unit after the number.

// known answers, use as guide
COC(=O)N1CC=C(c2cc(N3CCC[C@@H](NC(=O)c4cccc(N5CC6(C5)CN(C(C)C)C6)n4)C3)c3c(N)ncnn23)C1 [Example 819]	0.021 µM
Cc1cc(-c2cc(N3CCC[C@@H](NC(=O)c4ccnc(N5CCN(C)CC5)n4)C3)c3c(N)ncnn23)ccc1-n1cnnn1 [Example 850]	0.01 µM

Consider now this further molecule.
Return reported IC50; argument: CCN1C2CCC1CC(Oc1nc(C)sc1C(=O)NC1CCCN(c3cc(-c4ccc(C#N)nc4)n4ncnc(N)c34)C1)C2 (stereo not drawn) [Example 964]
0.046 µM
